Entry source: patent US20220177594A1

# study_target: Feline_OSMR_hlgG1_Fc (feline)
# Sequence (chain, as listed by the source limits assumed, form in doubt): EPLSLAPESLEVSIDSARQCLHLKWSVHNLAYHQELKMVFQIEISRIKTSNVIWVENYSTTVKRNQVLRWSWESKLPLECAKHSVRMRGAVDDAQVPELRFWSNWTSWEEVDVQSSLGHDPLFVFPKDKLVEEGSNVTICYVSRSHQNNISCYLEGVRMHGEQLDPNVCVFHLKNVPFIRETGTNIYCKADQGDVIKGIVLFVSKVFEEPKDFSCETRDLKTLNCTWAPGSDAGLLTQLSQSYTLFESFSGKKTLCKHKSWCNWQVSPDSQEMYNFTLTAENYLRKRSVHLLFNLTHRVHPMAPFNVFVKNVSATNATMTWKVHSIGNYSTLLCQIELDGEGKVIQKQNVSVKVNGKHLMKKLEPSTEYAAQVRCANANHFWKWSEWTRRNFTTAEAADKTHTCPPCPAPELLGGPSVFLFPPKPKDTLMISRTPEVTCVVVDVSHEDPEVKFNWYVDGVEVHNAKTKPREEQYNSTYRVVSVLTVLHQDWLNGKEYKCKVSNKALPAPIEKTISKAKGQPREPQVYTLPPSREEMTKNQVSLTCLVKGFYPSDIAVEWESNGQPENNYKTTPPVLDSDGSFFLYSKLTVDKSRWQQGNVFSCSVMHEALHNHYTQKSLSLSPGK
# assay_details: SPR Biacore
pKd: −log10 of the molar value.

| binder | pKd |
| --- | --- |
| Mu_02D09_VH (SEQ ID NO: 31)_H35A (antibody, V domains shown) VH: EVQLVESGGGLVKPGGSLTLSCAASGFTFSDYGMAWLRQAPEKGLEWVAYISSGSRAVFFADTVKGRFTISRDNAKNTLFLQMTSLRSDDTAMYYCARDRYDGRGFAYWGQGTLVTVSA VL: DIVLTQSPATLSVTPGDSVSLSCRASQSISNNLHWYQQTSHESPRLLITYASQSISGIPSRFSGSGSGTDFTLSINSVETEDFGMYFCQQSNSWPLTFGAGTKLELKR | 8.09 |
| Mu_02D09_VL (SEQ ID NO: 33)_Q27A (antibody, V domains shown) VH: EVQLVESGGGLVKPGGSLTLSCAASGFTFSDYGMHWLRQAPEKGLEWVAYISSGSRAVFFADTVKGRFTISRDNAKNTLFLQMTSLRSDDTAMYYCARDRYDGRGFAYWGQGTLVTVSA VL: DIVLTQSPATLSVTPGDSVSLSCRASASISNNLHWYQQTSHESPRLLITYASQSISGIPSRFSGSGSGTDFTLSINSVETEDFGMYFCQQSNSWPLTFGAGTKLELKR | 8.12 |
| Mu_10F07_VH (SEQ ID NO: 39)_Y107A (antibody, V domains shown) VH: DVKLVESGEGLVKPGGSLKLSCAASGFTFSSYAMSWVRQTPEKRLEWVTYISSGGDYFYYADTVKGRFTISRDNARNTLYLQMSSLKSEDTAMYYCTRDPITGTFAAWGQGTLVTVSA VL: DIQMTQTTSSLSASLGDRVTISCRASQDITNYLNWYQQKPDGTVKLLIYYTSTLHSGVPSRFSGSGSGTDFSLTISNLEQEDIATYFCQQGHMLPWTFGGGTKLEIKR | 8.84 |
| mouse: canine 19F07 chimera (antibody, V domains shown) VH: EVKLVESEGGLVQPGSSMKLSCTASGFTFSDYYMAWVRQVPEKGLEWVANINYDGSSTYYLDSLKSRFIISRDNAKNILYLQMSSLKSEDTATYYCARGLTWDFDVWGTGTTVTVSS VL: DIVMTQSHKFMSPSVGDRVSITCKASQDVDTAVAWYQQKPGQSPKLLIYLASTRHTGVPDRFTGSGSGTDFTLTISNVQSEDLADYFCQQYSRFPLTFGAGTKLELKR | 9.51 |
| Mu_02D09_VH (SEQ ID NO: 31)_S52A (antibody, V domains shown) VH: EVQLVESGGGLVKPGGSLTLSCAASGFTFSDYGMHWLRQAPEKGLEWVAYIASGSRAVFFADTVKGRFTISRDNAKNTLFLQMTSLRSDDTAMYYCARDRYDGRGFAYWGQGTLVTVSA VL: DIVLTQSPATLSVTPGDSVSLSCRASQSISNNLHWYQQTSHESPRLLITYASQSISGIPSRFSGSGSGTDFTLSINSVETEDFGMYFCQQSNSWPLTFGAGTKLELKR | 9.13 |
